Biological target: T1, PUF4 RNA-binding domain (Saccharomyces cerevisiae, UniProt P25339 537-888)
T1 sequence: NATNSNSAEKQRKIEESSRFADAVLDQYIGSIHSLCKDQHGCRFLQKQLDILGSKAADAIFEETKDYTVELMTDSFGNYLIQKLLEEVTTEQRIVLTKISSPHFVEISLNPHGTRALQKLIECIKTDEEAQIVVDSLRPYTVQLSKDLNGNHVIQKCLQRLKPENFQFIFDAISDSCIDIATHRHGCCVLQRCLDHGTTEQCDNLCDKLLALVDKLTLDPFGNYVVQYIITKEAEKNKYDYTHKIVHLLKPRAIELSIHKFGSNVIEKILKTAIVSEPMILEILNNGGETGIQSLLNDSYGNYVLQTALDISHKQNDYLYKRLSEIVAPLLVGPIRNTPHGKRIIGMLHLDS
Assay: Mg; RNA-MaP; 20 mM Na-HEPES pH 7.4, 30 mM KOAc, 0.75 mM MgCl2, 0.1% Tween-20, 5% glycerol, 0.1 mg/mL BSA, 2 mM DTT; 25 C; 0.0125-409.6 nM protein
Conditions: tags: N-His6-TEV cleaved; C-SNAP kept, Cy3B-labelled; label: tethered on chip by stalled RNA polymerase
Task for the reader: assign each of the following binders its reported log10(Kd).
Heads up: the numbers are on a log10 scale; they represent Kd in nM.

Below: 4 binders and their reported log10(Kd).
UCUCUUUGUACGUGUCUCUU (ssRNA) [Ic_S1_P3E.1_K3.1_C3.1_H3.1_A3.1_[T5C]_[A6G]_F3.1_[A8G]_T3.1]: 2.69
Id_iii_S2_P4E.5_K4.1_C4.3_[C-2A]_H4.1_A4.1_F4.1_T4.2 (ssRNA) RNA: UUUGAUUAAUAUGAUAUCGUUCUUUCUUAUUGUAUAUUAGUUUCUUUCUCGAUAUCAUAUUAAUCUUU: -0.22
UCUCUUUGUAUAAUUUCUCUU (ssRNA) [Ib_S1_P4E.1_K4.1_C4.1_H4.1_A4.1_[T7A]_F4.1_[A9T]_T4.1]: 0.92
Id_ii_S2_P5E.4_K5.3_C5.2_[C-2A]_H5.3_A5.1_F5.1_T5.2_[T11C]_[A12T] (ssRNA) RNA: UUUGAUUAAUAUGAUAUCGUUCUUUCUAUACACUUAUUACUUUCUUUCUCGAUAUCAUAUUAAUCUUU: 2.07

Dear reader, for each entry below, please note its log10(Kd).
1. Id_ii_S4_P5E.2_K5.1_C5.2_[C-2T]_[T-1C]_H5.1_A5.1_F5.1_T5.2_[T11A]_[A12C] (ssRNA) RNA: UUUGACAACUGAUCGUUCUUUCUUCUGUAUUAUUAACUUCUUUCUCGAUCAGUUGUCUUU
2. UCUCUUUGUACAUCUUCUCUU (ssRNA) [Ic_S1_P4E.1_K4.1_C4.1_H4.1_A4.1_[T5C]_F4.1_[T8C]_[A9T]_T4.1]

Marked response:
1: 0.47; 2: 1.32
